target: human MC4R receptor (human, UniProt P32245 1-332); test: cell-based or functional assay
Sequence (P32245 whole entry): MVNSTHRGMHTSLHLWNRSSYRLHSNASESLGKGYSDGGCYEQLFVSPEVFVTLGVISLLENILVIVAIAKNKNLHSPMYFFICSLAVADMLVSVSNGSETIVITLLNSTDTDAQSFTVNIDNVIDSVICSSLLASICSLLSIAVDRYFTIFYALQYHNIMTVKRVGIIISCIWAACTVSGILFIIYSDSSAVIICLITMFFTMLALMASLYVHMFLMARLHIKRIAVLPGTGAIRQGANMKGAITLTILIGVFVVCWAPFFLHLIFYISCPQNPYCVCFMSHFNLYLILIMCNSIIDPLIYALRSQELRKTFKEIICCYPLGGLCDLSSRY
Positions of bridges follow the written chain, without caps; N, C: chain ends. Non-standard residues stand in square brackets, D forms with d. Aib = CC(C)(N)C(=O)O
Hi there, I'd appreciate the recorded MC4R selectivity vs MC1R for every entry that follows.
Enter a number only.

Give the measured MC4R selectivity vs MC1R of {CH2CO}-[Aib]H[dF]RWC-NH2 (thioether N-6; SMILES CC1(C)NC(=O)CSC[C@@H](C(N)=O)NC(=O)[C@H](Cc2c[nH]c3ccccc23)NC(=O)[C@H](CCCNC(=N)N)NC(=O)[C@@H](Cc2ccccc2)NC(=O)[C@H](Cc2c[nH]cn2)NC1=O) [CTX-1647] .
3.66

Entry to check: {CH2CO}-[Aib]H[dF]RFC-NH2 (thioether N-6; SMILES CC1(C)NC(=O)CSC[C@@H](C(N)=O)NC(=O)[C@H](Cc2ccccc2)NC(=O)[C@H](CCCNC(=N)N)NC(=O)[C@@H](Cc2ccccc2)NC(=O)[C@H](Cc2c[nH]cn2)NC1=O) [CTX-1650]
0.95
